biological target: UniProt P31424; experiment: Calcium mobilization assay in HEK 293A cells stably expressing rat mGluR5; settings: HEK cells transfected with rat mGluR5; inhibition of glutamate EC80 response; ± standard error where average of at least three experiments
Sequence (P31424 21-1203): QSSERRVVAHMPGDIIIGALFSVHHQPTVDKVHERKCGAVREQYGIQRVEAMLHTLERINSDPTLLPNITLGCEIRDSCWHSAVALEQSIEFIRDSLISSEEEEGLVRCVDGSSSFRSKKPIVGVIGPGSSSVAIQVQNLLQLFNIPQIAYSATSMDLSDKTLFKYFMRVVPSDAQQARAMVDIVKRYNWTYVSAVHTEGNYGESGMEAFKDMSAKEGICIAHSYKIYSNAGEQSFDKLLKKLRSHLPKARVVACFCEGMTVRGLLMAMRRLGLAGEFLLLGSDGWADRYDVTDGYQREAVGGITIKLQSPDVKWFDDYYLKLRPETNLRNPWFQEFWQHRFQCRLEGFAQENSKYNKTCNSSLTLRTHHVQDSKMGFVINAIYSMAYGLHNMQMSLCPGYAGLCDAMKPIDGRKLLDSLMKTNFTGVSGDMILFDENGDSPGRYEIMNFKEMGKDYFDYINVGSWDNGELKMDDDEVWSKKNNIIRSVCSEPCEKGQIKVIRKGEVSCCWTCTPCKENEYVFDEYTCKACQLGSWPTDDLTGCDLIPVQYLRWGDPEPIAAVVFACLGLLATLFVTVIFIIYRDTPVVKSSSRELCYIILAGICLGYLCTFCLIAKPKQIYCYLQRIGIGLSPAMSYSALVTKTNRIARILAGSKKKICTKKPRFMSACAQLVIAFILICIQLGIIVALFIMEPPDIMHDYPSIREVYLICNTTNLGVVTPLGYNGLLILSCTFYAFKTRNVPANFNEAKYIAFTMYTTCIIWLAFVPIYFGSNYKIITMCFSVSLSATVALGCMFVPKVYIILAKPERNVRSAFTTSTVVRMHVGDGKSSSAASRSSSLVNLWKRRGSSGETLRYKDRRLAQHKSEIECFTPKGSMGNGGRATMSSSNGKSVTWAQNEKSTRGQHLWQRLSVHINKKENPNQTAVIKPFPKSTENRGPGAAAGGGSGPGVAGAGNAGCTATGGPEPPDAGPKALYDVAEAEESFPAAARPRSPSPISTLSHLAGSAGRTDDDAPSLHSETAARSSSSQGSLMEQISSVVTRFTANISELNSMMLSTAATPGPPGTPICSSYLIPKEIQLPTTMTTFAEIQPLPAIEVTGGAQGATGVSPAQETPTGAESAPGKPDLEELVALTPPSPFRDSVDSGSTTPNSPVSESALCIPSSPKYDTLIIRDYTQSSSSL
MEASURED ATTRIBUTE: pIC50
# pIC50: negative log10 of molar concentration; output just the value

Sample records with pIC50:
structure_as_smiles=Cc1csc(NC(=O)c2cc(-c3cn(C)nc3C)cn3ncnc23)n1 assay_target="UniProt P31424" measured_value=5.67
structure_as_smiles=Cc1csc(NC(=O)c2cc(-c3cncnc3)cn3ncnc23)n1 assay_target="UniProt P31424" measured_value=6.12
structure_as_smiles=CCn1nccc1-c1cc(C(=O)Nc2nc(C)cs2)c2ncnn2c1 assay_target="UniProt P31424" measured_value=5.41

Query string: Recorded pIC50 of Cc1csc(NC(=O)c2cc(-c3cnccc3C)cn3ncnc23)n1 , please.
Result string: 6.77

Query string: How about Cc1csc(NC(=O)c2cc(-c3cc(C)nn3C)cn3ncnc23)n1 ?
Result string: 6.16

Query string: How about Cc1cc(-c2cc(C(=O)Nc3ccc(F)cn3)c3nccn3c2)[nH]n1 ?
Result string: 5.41
